Data origin, for the record: PubChem BioAssay AID1508600

- Assay details: Components of the Cytosolic LPS Sensing Pathway: Gene Identification via Genome-wide siRNA Screen
- Details: RAW264.7 macrophages, IL-1a HTRF, actives lie on both sides, screened at 100 nM (by protocol), cells primed 5 h with Pam3CSK4 first
About 3,700 (7%) of roughly 53,000 sequences were called active.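 How the source made its calls: active means gene knockdowns whose robust z-score for IL-1 alpha signal is at least 2 or at most -2, so actives lie on both sides; inactive means the rest.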 Many of the other results were omitted from the sample, so actives are more common in it than they were.
Would you mind answering with one of these outcomes? class 1 for active, class 0 for inactive

1. GGAAUUCCGAAUAUUCCAGTT against Tsen2 | class 0
2. GCUGGAGAACCUCCCUAAATT against Mrps33 | class 0
3. GGCAGCAAAGUCAAGAUGUTT against Msgn1 | class 0
4. CCAUGAUCGCUAGUGAAGCTT against Mrpl24 | class 0
5. GGAGACAACAACAAGACAUTT against Tbk1 | class 1
6. GGAAUAAAACUUCUGAGAATT against Oog1 | class 0

State the result this test recorded for GGGCAAUCUGCUAUUCUCUTT against Pheta2 .
class 0

State the result this test recorded for GGAGCACAGUCUCAUGAAUTT against A130014H13Rik .
class 0

State the result this test recorded for GCAAAUUUACCUCGGUUUUTT against Olfr46 .
class 0

====

- Assay details: Components of the Cytosolic LPS Sensing Pathway: Gene Identification via Genome-wide siRNA Screen
- Details: RAW264.7 macrophages, IL-1a HTRF, actives lie on both sides, screened at 100 nM (by protocol), cells primed 5 h with Pam3CSK4 first
- Protocol: Non-canonical inflammasome activation by cytosolic LPS is a critical component of the host response to Gram-negative bacterial infection, however we lack a comprehensive understanding of the cellular processes that control this pathway. […] Lipofectamine RNAiMAX Transfection Reagent ([…]; Invitrogen) was added in […] serum-free, antibiotic-free media to plate wells using a Thermo Scientific Matrix WellMate and Microplate Stacker. […] The plates were read on an EnVision plate reader (PerkinElmer). […]
In all, about 53,000 sequences went through this assay and about 3,700 (7%) were called active.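 How the source made its calls: active means gene knockdowns whose robust z-score for IL-1 alpha signal is at least 2 or at most -2, so actives lie on both sides; inactive means the rest.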 This is one part of a sample in which actives are shown more often than they occur.
Would you mind answering with one of these outcomes? TRUE (active), FALSE (inactive)

State the result this test recorded for GCCCUUGCACUAUUUUUCCTT against Olfr1218 .
FALSE

State the result this test recorded for GCACCUCCACAAGAAUGAATT against Six2 .
FALSE

State the result this test recorded for GGAAAUUGGAGAUUUUUCCTT against Ccdc54 .
FALSE

State the result this test recorded for GGAACUACUACUCACCUAUTT against Trhr .
FALSE

====

This listing pairs sequences with measured z-score.
- Assay details: Components of the Cytosolic LPS Sensing Pathway: Gene Identification via Genome-wide siRNA Screen
- Details: RAW264.7 macrophages, IL-1a HTRF, actives lie on both sides, screened at 100 nM (by protocol), cells primed 5 h with Pam3CSK4 first
Hit rate of the full screen: of about 53,000 sequences, about 3,700 (7%) were called active. The entries come from a sample that favours actives as a whole.
# output: bare number, no unit

1. GGCUUUAUCAGAUCCAACCTT against Tmem108 | 2.47
2. CCAGAGAGAUACCUGAUCUTT against Tas2r113 | -0.993
3. GCAAGAUUCAGAGUGCAGCTT against Txlng | -1.09
4. GGACUUCUCUGUGAAGAUGTT against Ctsf | -0.129
5. GCACAUACAGCUUAACAAATT against Nktr | 1.27
6. GCACUUUGUGCUAGAUGAATT against Ddx39a | -0.688
7. GGCCCAUUACUUGUUGACUTT against Fanci | 0.378
8. GUUUAUGGCCUCCUGUUGCTT against Gpbar1 | -0.773
9. GGAAAAUCAACAGCAUCAATT against Olfr661 | -0.642
10. GGGAAUGGCUAAUGUUUAUTT against Stk38l | 2.32

What does the data say about its z-score? Entry: GGCAAAGUUGUCCUAAGGUTT against Rab27b
2.54

What does the data say about its z-score? Entry: GGAGGACUAGUUGUGACUUTT against Aldh1a1
-0.384

====

- Assay details: Components of the Cytosolic LPS Sensing Pathway: Gene Identification via Genome-wide siRNA Screen;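 further: robust z of the log signal after scaling to non-targeting control siRNA wells of the plate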
- Details: RAW264.7 macrophages, IL-1a HTRF, actives lie on both sides, screened at 100 nM (by protocol), cells primed 5 h with Pam3CSK4 first
The whole screen tested about 53,000 sequences, of which about 3,700 (7%) were called active.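 The calls were made as follows: active = gene knockdowns whose robust z-score for IL-1 alpha signal is at least 2 or at most -2, so actives lie on both sides; inactive = the rest.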 Only a selection was taken, and actives are over-represented in it overall.
Would you mind answering with one of these outcomes? yes (1) for active, no (0) for inactive

Answered cases to consult:
1. GGAGGAGUCUUGAAUCCAGTT against Yod1 | no (0)
2. GCAGCCAAGUGGGUAACUUTT against Nicn1 | no (0)
3. CGAAACUUACCAGGAGUCGTT against Ttyh2 | yes (1)

State the result this test recorded for CCCAACACAAUAUUUGCCATT against Nfyc .
no (0)

State the result this test recorded for CCCUCAUUGUAACCUUAACTT against Olfr792 .
yes (1)

State the result this test recorded for GCAGGUUCACAAUGGAUUATT against Lrrc25 .
no (0)

====

This listing pairs sequences with measured z-score.
- Assay details: Components of the Cytosolic LPS Sensing Pathway: Gene Identification via Genome-wide siRNA Screen;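 further: robust z of the log signal after scaling to non-targeting control siRNA wells of the plate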
- Details: RAW264.7 macrophages, IL-1a HTRF, actives lie on both sides, screened at 100 nM (by protocol), cells primed 5 h with Pam3CSK4 first
About 3,700 (7%) of roughly 53,000 sequences were called active. The entries come from a sample that favours actives as a whole.
# output: bare number, no unit

Consider the reported z-score for these sequences:
1. GGAUGUUGAUUUUCAUGGUTT against Grpel2 | 1.13
2. GGAGUAUUACCUGGUUAAGTT against Suv39h1 | -1.18
3. GCUGAAAUCCAGGAUAGAGTT against Zw10 | -2.03
4. GGUGUACUGAUUUUGAAGATT against Msh3 | 0.858
5. GGCUACAACCAAAUCUUCATT against Papln | 0.873

Now examine the next entry.
What does the data say about its z-score? Entry: GGAUCUUUUAGCUAACCUATT against Tesk2
1.84

====

- Assay details: Components of the Cytosolic LPS Sensing Pathway: Gene Identification via Genome-wide siRNA Screen;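 further: robust z of the log signal after scaling to non-targeting control siRNA wells of the plate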
- Details: RAW264.7 macrophages, IL-1a HTRF, actives lie on both sides, screened at 100 nM (by protocol), cells primed 5 h with Pam3CSK4 first
Screen size: about 53,000 sequences; about 3,700 (7%) were called active.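 The calls were made as follows: active = gene knockdowns whose robust z-score for IL-1 alpha signal is at least 2 or at most -2, so actives lie on both sides; inactive = the rest.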 Only a selection was taken, and actives are over-represented in it overall.
Would you mind answering with one of these outcomes? active, inactive

Answered cases to consult:
1. GGUGAGGAGGAAAUCCUGCTT against Rdh10 | inactive
2. GGAAAAAUCAGUUUCGUCUTT against Dgkq | inactive
3. GAGAGCGGAGAGAUCAAAGTT against Iltifb | inactive
4. GGUGGUUCACAAAUACUGUTT against Agtpbp1 | inactive
5. CCCUAAAACCAAAUGUACATT against Tet2 | inactive

State the result this test recorded for GGAAAAAGCCAAUUAUGUCTT against Fbxl2 .
inactive

State the result this test recorded for GCAAACUCCAGCUCAACGATT against Galnt4 .
inactive

State the result this test recorded for GGCCAUCUCCUUCAACUAUTT against Ugt2a1 .
inactive

State the result this test recorded for GGUCUACGGCACCUUCUAUTT against Bsnd .
inactive

State the result this test recorded for GGCUUAAGUAUUUUUCUGATT against Aktip .
inactive

State the result this test recorded for GGGAAAAGAUUCAGCUAGATT against Ntn4 .
inactive

State the result this test recorded for GGAAUUUUCUCAUGAUCUUTT against Krtap3-3 .
inactive

State the result this test recorded for GGUUCAAAACUACACACACTT against Sp9 .
inactive

State the result this test recorded for GGAAAAAUCCAAGAAGCAATT against Zc3h11a .
inactive

State the result this test recorded for GGUACUGGCAUGGUGACAATT against Mmp11 .
active

State the result this test recorded for CCUCUACGAUGACUGGAUGTT against Sh3bp1 .
inactive

State the result this test recorded for GCACCAUUUUAAGAUCUGCTT against Prr13 .
inactive

State the result this test recorded for GGGAUAUCCUACCAGGUCATT against Ppard .
inactive

State the result this test recorded for GGAGAAGCUGCUGGCAGAATT against Trub1 .
inactive

State the result this test recorded for GGCAGUCACUGGCUAAAUGTT against Ugt2a1 .
active

State the result this test recorded for CCCAUCCAAUGCUUAUGUGTT against Scg5 .
inactive

====

- Assay details: Components of the Cytosolic LPS Sensing Pathway: Gene Identification via Genome-wide siRNA Screen;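 further: robust z of the log signal after scaling to non-targeting control siRNA wells of the plate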
- Details: RAW264.7 macrophages, IL-1a HTRF, actives lie on both sides, screened at 100 nM (by protocol), cells primed 5 h with Pam3CSK4 first
- Description: Non-canonical inflammasome activation by cytosolic LPS is a critical component of the host response to Gram-negative bacterial infection, however we lack a comprehensive understanding of the cellular processes that control this pathway. […] Lipofectamine RNAiMAX Transfection Reagent ([…]; Invitrogen) was added in […] serum-free, antibiotic-free media to plate wells using a Thermo Scientific Matrix WellMate and Microplate Stacker. […] The plates were read on an EnVision plate reader (PerkinElmer). […]
About 3,700 (7%) of roughly 53,000 sequences were called active.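 The calls were made as follows: active = gene knockdowns whose robust z-score for IL-1 alpha signal is at least 2 or at most -2, so actives lie on both sides; inactive = the rest.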 Shown is part of a subset that was picked to be rich in actives.
Would you mind answering with one of these outcomes? True for active, False for inactive

Answered cases to consult:
1. GGUGAAAAUACAUUGCCAGTT against Plk4 | False
2. GGUGCUAAGAAAAUCAAAGTT against Ryr2 | True
3. CGGCCUCCAUGUUAAGAUATT against Csf2rb2 | False
4. GCAGAUCAAAUUUAGCUGATT against Wwc2 | False
5. GGGAAAAUUUCCUCUGACUTT against Chia1 | True

State the result this test recorded for GCGAUUCAGAGACCUAUGGTT against Aven .
True

State the result this test recorded for GGAAAGUCCUUCAUCAGCATT against Cep120 .
True

State the result this test recorded for GGACACUAUACAAAUUUCGTT against Fank1 .
False
